Provide the reported EC50 of each item.
Molecular target: T1, MICA*001 expressed at the cell surface (human, UniProt Q29983 24-297)
T1 construct: the protein on cells also has its transmembrane and cytoplasmic parts (Genbank AAB41060); also called C1R-MICA*001; C1R-MICA*01
T1 sequence: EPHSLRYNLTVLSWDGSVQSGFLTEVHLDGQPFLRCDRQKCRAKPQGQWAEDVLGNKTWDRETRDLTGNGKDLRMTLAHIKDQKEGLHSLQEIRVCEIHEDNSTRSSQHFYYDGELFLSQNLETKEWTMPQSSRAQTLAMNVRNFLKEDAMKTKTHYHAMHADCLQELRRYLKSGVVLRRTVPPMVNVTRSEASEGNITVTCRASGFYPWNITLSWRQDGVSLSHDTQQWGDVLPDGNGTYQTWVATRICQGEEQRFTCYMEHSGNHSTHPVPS
Assay: flow cytometry on C1R transfectant cells, 4-parameter logistic fit
Give bare numbers, in µg/mL.

Some solved entries appear below for comparison.
>  <binder>
CHG1-M-MIA-18E8 (antibody, human IgG1, V domains shown, the VH entry ends with ASTK) VH: DVQLQESGPDLVNPSQSLSLICTVTGYSITSDYSWHWIRQFPGNKLEWMGNIHYSGRINYNPSLRSRISITRDTSKNQFFLQLISVTTEDTATYYCATRRTFGNFEDYWGQGTTLTVSS VL: QIVLSQSPATLSVSPGEKVTMTCRSSSSVNYMHWYQQKPGSSPKPWIYATSTLASGVPARFSGSGSGTSYSLTISRVEAEDAATYYCQQWSSNPLTFGAGTKLELK

>  <unit tag>
µg/mL

>  <EC50>
0.5

$$$$
>  <binder>
CHG1-M-MIA-9C10 (antibody, human IgG1, V domains shown, also called chimeric anti-MICA 9C10) VH: QVQLQQPGAELVRPGTSVNLSCKASGYSFTRYWMNWVKQRPGQGLEWIGMIHPSDSETRLNQKFKDKATLTVDKSSSTAYMQLSSPTSEDSAVYYCGYGNFFYVMDYWGQGTSVTVSS VL: DILLTQSPAILSVSPGERVSFSCRASQSIGTSIHWYQQRTNGSPRLLIKFASESISGIPSRFSGSGSGTDFTLNINSVESEDIADYYCQQSNFWPFTFGSGTKLEVK

>  <unit tag>
µg/mL

>  <EC50>
2.09

$$$$

Read the next record carefully.
Exercise: Return EC50 (reported value) for this binder: CHG1-M-MIA-15F9 (antibody, human IgG1, V domains shown, the VH entry ends with ASTK) VH: DVQLQESGPDLVKPSQSLSLTCTVTGYSITSGYSWHWIRQFPGNKLEWMGFIHYSGSTDYNPSLKSRISLTRDTSKNQFFLQLNSVSTEDTATYYCAKDYGHWYFDVWGAGTTVTVSS VL: SIVMTQTPKFLLVSAGDRVTITCKASQSVSYDVAWYQQKPGQSPKLLIFYASNRYTGVPARFTGSGYGTDFTFTISTVQAEDLAVYFCQQDYSSLTFGAGTKLELK
Key: 0.68
